Test system: 769-P (Kidney Carcinoma)
method.notes: Bliss excess, mean over the matrix (fraction); higher = more synergy;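 further: after 72 h of two-drug dosing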
Each item that follows carries a reported Bliss excess.
Respond with the number and no other words.

Worked cases, Bliss excess given:
- compound: "CC1(C)CCC(CN2CCN(c3ccc(C(=O)NS(=O)(=O)c4ccc(NCC5CCOCC5)c([N+](=O)[O-])c4)c(Oc4cnc5[nH]ccc5c4)c3)CC2)=C(c2ccc(Cl)cc2)C1 [Venetoclax] + C[C@@H](Nc1cc(F)cc(F)c1)c1cc(C(=O)N(C)C)cc2c(=O)cc(N3CCOCC3)oc12 [AZD8186] (first compound max 1 µM, 7x7, partner max 3 µM)"
  observed.value: 0.049
- compound: "CN(CCO)CC[C@H](CSc1ccccc1)Nc1ccc(S(=O)(=O)NC(=O)c2ccc(N3CCC([C@@H](O)c4ccccc4-c4ccc(Cl)cc4)CC3)cc2)cc1S(=O)(=O)C(F)(F)F [AZD4320] + C=CCn1c(=O)c2cnc(Nc3ccc(N4CCN(C)CC4)cc3)nc2n1-c1cccc(C(C)(C)O)n1 [AZD1775] (first compound max 1 µM, partner max 1 µM)"
  observed.value: -0.0025
- compound: "CS(=O)(=O)CCNCc1ccc(-c2ccc3ncnc(Nc4ccc(OCc5cccc(F)c5)c(Cl)c4)c3c2)o1 [Lapatinib] + Cn1cnc2c(F)c(Nc3ccc(Br)cc3Cl)c(C(=O)NOCCO)cc21 [Selumetinib] (first compound max 10 µM, 7x7, partner max 10 µM)"
  observed.value: 0.0368
- compound: "COc1cccc(OCCCN)c1-c1cc(Nc2cnc(C#N)cn2)n[nH]1 [Prexasertib] + CCc1c2c(nc3ccc(O)cc13)-c1cc3c(c(=O)n1C2)COC(=O)[C@]3(O)CC [SN-38] (first compound max 1 µM, 7x7, partner max 0.3 µM)"
  observed.value: -0.0688
- compound: "CC(=O)c1c(C)c2cnc(Nc3ccc(N4CCNCC4)cn3)nc2n(C2CCCC2)c1=O [Palbociclib] + Cc1c2c(nn1C)CSCc1cc(n(C)n1)CSc1cc(c3ccccc3c1)OCCCc1c(C(=O)O)n(C)c3c-2c(Cl)ccc13 [AZD5991] (first compound max 10 µM, 7x7, partner max 1 µM)"
  observed.value: -0.004

We now examine a further compound.
The compound identified as N#Cc1cnc(Nc2cc(NC[C@H]3CNCCO3)c(C(F)(F)F)cn2)cn1 [SRA737] + CCc1c2c(nc3ccc(O)cc13)-c1cc3c(c(=O)n1C2)COC(=O)[C@]3(O)CC [SN-38] (first compound max 10 µM, 7x7, partner max 0.3 µM) registered its Bliss excess at -0.0284

---

Test system: EPLC-272H (Other Solid Carcinomas)
method.notes: Bliss excess, mean over the matrix (fraction); higher = more synergy
Returns one of class 1 or class 0; class 1 when Bliss excess is >= -0.01.

For orientation, consider the following solved cases.
- molecule: "CC1(C)CCC(CN2CCN(c3ccc(C(=O)NS(=O)(=O)c4ccc(NCC5CCOCC5)c([N+](=O)[O-])c4)c(Oc4cnc5[nH]ccc5c4)c3)CC2)=C(c2ccc(Cl)cc2)C1 [Venetoclax] + C=CCn1c(=O)c2cnc(Nc3ccc(N4CCN(C)CC4)cc3)nc2n1-c1cccc(C(C)(C)O)n1 [AZD1775] (first compound max 1 µM, partner max 1 µM)"
  system: "EPLC-272H (Other Solid Carcinomas)"
  assigned.label: "class 0"
- molecule: "CN(CCO)CC[C@H](CSc1ccccc1)Nc1ccc(S(=O)(=O)NC(=O)c2ccc(N3CCC([C@@H](O)c4ccccc4-c4ccc(Cl)cc4)CC3)cc2)cc1S(=O)(=O)C(F)(F)F [AZD4320] + C[C@@H]1COCCN1C2=NC(=NC(=C2)C3(CC3)[S@](=N)(=O)C)C4=C5C=CNC5=NC=C4 [AZD6738] (first compound max 1 µM, 7x7, partner max 10 µM)"
  system: "EPLC-272H (Other Solid Carcinomas)"
  assigned.label: "class 0"
- molecule: "CCc1c2c(nc3ccc(O)cc13)-c1cc3c(c(=O)n1C2)COC(=O)[C@]3(O)CC [SN-38] + CN(C)CCCOc1ccc(-c2ccc3ncc4c(c3c2)n(C2CCOCC2)c(=O)n4C)cn1 [AZD0156] (first compound max 0.3 µM, 7x7, partner max 1 µM)"
  system: "EPLC-272H (Other Solid Carcinomas)"
  assigned.label: "class 1"
- molecule: "COc1nnc2ccc(N3CCC(c4ccc(OCCN5CCN(C)C(=O)[C@H]5C)cc4)CC3)nn12 [AZD5153] + Cn1cnc2c(F)c(Nc3ccc(Br)cc3Cl)c(C(=O)NOCCO)cc21 [Selumetinib] (first compound max 1 µM, 7x7, partner max 10 µM)"
  system: "EPLC-272H (Other Solid Carcinomas)"
  assigned.label: "class 1"
- molecule: "CC1(C)CCC(CN2CCN(c3ccc(C(=O)NS(=O)(=O)c4ccc(NCC5CCOCC5)c([N+](=O)[O-])c4)c(Oc4cnc5[nH]ccc5c4)c3)CC2)=C(c2ccc(Cl)cc2)C1 [Venetoclax] + C[C@@H]1COCCN1C2=NC(=NC(=C2)C3(CC3)[S@](=N)(=O)C)C4=C5C=CNC5=NC=C4 [AZD6738] (first compound max 1 µM, 7x7, partner max 10 µM)"
  system: "EPLC-272H (Other Solid Carcinomas)"
  assigned.label: "class 0"

Lookup: # check: Bliss excess of COc1cccc(OCCCN)c1-c1cc(Nc2cnc(C#N)cn2)n[nH]1 [Prexasertib] + C=CCn1c(=O)c2cnc(Nc3ccc(N4CCN(C)CC4)cc3)nc2n1-c1cccc(C(C)(C)O)n1 [AZD1775] (first compound max 1 µM, partner max 1 µM) is greater than or equal to -0.01
Found: class 0

Lookup: Is Bliss excess for C[C@@H](c1ccc2nccn2c1)n1nnc2ncc(-c3cnn(C)c3)nc21 [Savolitinib] + Cc1c2c(nn1C)CSCc1cc(n(C)n1)CSc1cc(c3ccccc3c1)OCCCc1c(C(=O)O)n(C)c3c-2c(Cl)ccc13 [AZD5991] (first compound max 1 µM, 7x7, partner max 1 µM) at or above -0.01?
Found: class 0
